target: mGlyT-1b (Mus musculus, UniProt P28571); assay: Glycine Uptake Inhibition Assay (mGlyT-1b); conditions: [3H]-glycine uptake in Flp-in-CHO cells transfected with mGlyT-1b cDNA; 20 min at 22° C.; read-out: GlyT-1 IC50
Sequence (P28571 1-651 isoform P28571-2): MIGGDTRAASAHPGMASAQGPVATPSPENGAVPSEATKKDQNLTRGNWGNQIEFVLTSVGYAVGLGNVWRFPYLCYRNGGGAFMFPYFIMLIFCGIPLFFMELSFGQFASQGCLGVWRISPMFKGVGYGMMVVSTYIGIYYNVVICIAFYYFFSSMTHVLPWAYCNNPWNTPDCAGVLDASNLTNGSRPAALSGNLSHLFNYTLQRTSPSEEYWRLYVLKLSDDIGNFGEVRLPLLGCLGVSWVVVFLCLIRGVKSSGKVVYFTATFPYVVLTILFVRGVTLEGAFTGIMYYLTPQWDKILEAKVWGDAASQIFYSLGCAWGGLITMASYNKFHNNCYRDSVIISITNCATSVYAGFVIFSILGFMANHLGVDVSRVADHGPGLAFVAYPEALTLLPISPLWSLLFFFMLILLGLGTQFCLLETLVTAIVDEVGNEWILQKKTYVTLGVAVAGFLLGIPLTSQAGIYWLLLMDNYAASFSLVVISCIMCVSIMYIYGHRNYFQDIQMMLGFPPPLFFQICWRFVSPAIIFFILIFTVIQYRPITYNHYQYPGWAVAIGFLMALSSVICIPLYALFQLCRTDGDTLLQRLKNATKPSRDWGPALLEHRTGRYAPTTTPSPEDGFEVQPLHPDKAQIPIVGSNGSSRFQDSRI
Lab note - cut at 50 nM for IC50: satisfied if strictly below, not satisfied if not.

{"columns": ["COMPOUND", "CLASS_NAME"],
 "data": [
  ["N#Cc1ccc(C(=O)NCC(=O)NC(c2ccccc2)c2cccc(C(F)(F)F)c2)cc1 (racemic) [Example 1.44]", "satisfied"],
  ["O=C(CNC(=O)c1ccccc1)NC(c1ccccc1)c1cccc(C(F)(F)F)c1 (racemic) [Example 1.30]", "not satisfied"],
  ["O=C(CNC(=O)c1ccc(F)cc1)NC(c1ccccc1)c1ccc(F)cc1 (racemic) [Example 1.69]", "not satisfied"],
  ["Cc1ccc(C(NC(=O)CNC(=O)c2ccc(F)cc2)c2cccc(C(F)(F)F)c2)cc1 (racemic) [Example 1.78]", "not satisfied"],
  ["O=C(CNC(=O)c1ccc(F)cc1)NC(c1ccc(F)cc1)c1cccc(C(F)(F)F)c1 (racemic) [Example 1.77]", "satisfied"],
  ["O=C(CNC(=O)c1ccc([N+](=O)[O-])s1)NC(c1ccccc1)c1ccc(Cl)cc1 (racemic) [Example 1.32]", "satisfied"],
  ["O=C(CNC(=O)c1ccc(F)cc1)NC(c1ccc(Cl)cc1)c1cccc(C(F)(F)F)c1 (racemic) [Example 1.76]", "not satisfied"],
  ["Cc1ccc(C(=O)NCC(=O)NC(c2cccc(F)c2)c2cccc(F)c2)s1 [Example 1.86]", "satisfied"],
  ["O=C(CNC(=O)c1ccc(F)cc1)NC(c1ccccc1)c1cc(F)cc(F)c1 (racemic) [Example 1.72]", "satisfied"],
  ["O=C(CNC(=O)c1ccsc1)NC(c1cccc(F)c1)c1cccc(F)c1 [Example 1.98]", "satisfied"]
]}
